Tested on: wheat germ agglutinin (Triticum aestivum), Alexa647-labelled
Test: wheat germ agglutinin binders on compound microarrays, profiling panel, artefact control for SMM control-protein annotation, biochemical, small-molecule microarray, 635/667 nm fluorescence (AID 1140);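 further: score merges 667 nm feature emission with signal to noise over triplicate slides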
Settings: WGA-A647 binding, 635 nm fluorescence, higher = more signal
Listing of entries alongside the reported composite z-score.
// print number alone

molecule | composite z-score
O=C1[C@H]2[C@H]3[C@H](O)[C@H](O)CC(=NO[C@@H]4O[C@H](CO)[C@@H](O)[C@H](O)[C@H]4O)[C@@H]3CC[C@H]2C(=O)N1c1ccc(F)cc1F | 0.0553
COc1ccc([Si](C)(C)[C@H]2[C@H](CC(=O)N3CCC[C@H]3CO)O[C@@]3(C(=O)N(Cc4cccc(N5C(=O)COc6ccccc65)c4)c4ccccc43)[C@@H]2C)cc1 | -0.32

Next, consider the following molecule.
[in] Returns the measured composite z-score for the input molecule. Input: COCCNC(=O)OCC1CCCC2(CC(OC(=O)NCCc3ccc(F)cc3)CC(CCC(=O)N[C@@H](C)C(=O)OC)O2)O1 (stereo partly drawn)
[out] 0.618

---

Assay: basal RPMI8226 viability, no added stimulus, profiling panel, cell-based, calcein-AM fluorescence, 48 h, PK04 Diversity Set (AID 1166);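 further: cells grown under basal conditions without added stimulus; test concentration not given here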
Conditions: RPMI8226 myeloma viability, higher = more signal
recordedEndpoint: z-score

compound | measurement
CC(CCC(=O)OC[C@H]1O[C@H](C#Cc2ccccc2)C=C[C@@H]1Oc1ccc(C)cc1)=NO[C@@H](C)c1cn([C@H](CO)Cc2ccccc2)nn1 | -2.17
O=C(NN=C1C[C@@H](O)[C@@H](O)[C@@H]2[C@@H]3C(=O)N(c4ccc(F)cc4F)C(=O)[C@@H]3CC[C@@H]12)OCc1ccccc1 | -0.768
COC(=O)C1=CCC(c2cccc(Cl)c2)O1 (configuration not stated) | -0.783
COCCOC(=O)N1C(=O)[C@@]2(c3cc(C#Cc4ccc(OC)cc4)ccc31)[C@H](C(=O)N1CCN(c3ncccn3)CC1)[C@H]1C(=O)O[C@H](c3ccccc3)[C@H](c3ccccc3)N1[C@@H]2c1ccc(OCCO)cc1 | 0.581
CCOC(=O)CCN1C(=O)[C@H]2[C@H]3[C@H](O)[C@H](O)CC(=NOCc4ccccc4)[C@@H]3CC[C@H]2C1=O | 1.16
COc1ccccc1CN1C(=O)c2ccccc2[C@@]2(Cc3ccccc3N(C(C)C)C2=O)[C@@H]1c1ccc(CO)cc1 | 0.931

Next, consider the following compound.
[in] Returns the measured z-score for the input compound. Input: C[C@@H](c1ccccc1)N1C(=O)[C@H]2[C@H]3[C@H](O)[C@H](O)CC(=NOC[C@@H](O)COCc4ccco4)[C@@H]3CC[C@H]2C1=O
[out] -0.873

---

Test system: Human papillomavirus type 1a protein E7 (residues 44-93)
Experiment: HPV1a E7 fragment binders on microarrays, primary screen, biochemical, small-molecule microarray, residues 44-93, 635 nm fluorescence (AID 1108);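 further: E7 fragment applied at 1 µg/mL in TBST for 1 h at 4 C; score combines spot fluorescence with its signal to noise ratio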
Settings: small-molecule microarray binding, fluorescence 635 nm; higher = more signal
Listing of entries alongside the reported composite z-score.
// print number alone

Example entries begin here.
compound | composite z-score
COC(=O)[C@H](C)NC(=O)CCC1CC(OC(=O)NCCc2ccc(F)cc2)CC2(CCCC(COC(=O)NCC(c3ccccc3)c3ccccc3)O2)O1 (some centres not stated) | 1.39
COCC1=C2[C@@H](CCc3ccccc3)OB(O)C[C@@H]2n2c(=O)n(-c3ccccc3)c(=O)n2C1 | -0.289
CC(CCN1CCc2nc(-c3ccccc3)c(-c3ccccc3)cc2C1)=NOC(C)CN1CCCCc2nc(C)c(C)cc21 (configuration not stated) | 1.27
C=CCNC(=O)[C@H]1[C@@H]2C(=O)O[C@@H](c3ccccc3)[C@@H](c3ccccc3)N2[C@@H](c2ccc(O)cc2)[C@]12C(=O)N(C(=O)OCCOC)c1ccc(C#CC3=CCCCC3)cc12 | 1.04
COC(=O)[C@H](C)NC(=O)CCC1CC(OC(=O)NCCc2ccc(F)cc2)CC2(CCCC(COC(=O)NCCc3ccc(Cl)cc3)O2)O1 (some centres not stated) | 1.29

[in] Returns the measured composite z-score for the input compound. Input: COC(=O)[C@H](C)NC(=O)[C@@H](C)CO
[out] 1.25

[in] Returns the measured composite z-score for the input compound. Input: CC(C)NC(=O)[C@@H]1c2ccccc2C(=O)N(CC23CC4CC(CC(C4)C2)C3)[C@H]1c1ccc(CO)cc1
[out] 1.36
